test system: LOX IMVI; test: NCI tumour cell line growth inhibition, 48 h
The source made the active and inactive calls. Cut-off read from the data, not from the text of the source: active = GI50 up to about 1.1 µM and inactive = higher.
Please reply with one of these outcomes: yes (1) for active, no (0) for inactive

A selection of reference data follows.
Cc1ccc(S(=O)(=O)OC2CS[S+]([O-])CC2OS(=O)(=O)c2ccc(C)cc2)cc1 (stereo not given)
no (0)
O=C1C(Cl)=C(NCCN2CCOCC2)C(=O)c2ncccc21
yes (1)
N#Cc1nc(C2OC(COC(=O)c3ccccc3)C(OC(=O)c3ccccc3)C2OC(=O)c2ccccc2)oc1N (stereo not given)
no (0)

State the result this test recorded for CCCCCCC(=O)OC[n+]1cccc(-c2c(COC(=O)NC(C)C)c(COC(=O)NC(C)C)c3n2CCC3)c1 .
no (0)

Given COc1ccc(C(c2ccccc2C(=O)O)c2ccc(OC)c3ccccc23)c2ccccc12 , state the outcome it received in this test.
no (0)

Kindly provide the recorded test outcome for the following compound: CCCNCCCCC(NC(C)=O)C(=O)NCc1ccccc1 (stereo not given)
no (0)

Assay outcome for C=C[C@]1(C)CCC2=C(CCC3C2(C)CCC[C@]3(C)CO)C1 (stereo not given in full) : what was it?
no (0)

Give the logged outcome of this assay for the following compound: CC(=O)O[C@H]1CC[C@@]2(C)C(=CC[C@H]3C(CC#N)[C@@](C)(C#N)CCC32)C1 (stereo not given in full)
no (0)

Name the outcome recorded for CC(=O)Oc1ccc(/C=C/C(=O)NCC(NC(=O)/C=C/c2ccc(OC(C)=O)c(OC(C)=O)c2)C(=O)O)cc1OC(C)=O (stereo not given) in the assay.
no (0)

Which outcome did this test record for the compound O=c1cc(NNc2ccccc2)[nH]c(=S)[nH]1 ?
no (0)

* * *

The reader will find reported GI50 values listed item by item below.
test system: COLO 205; experiment: NCI tumour cell line growth inhibition, 48 h
Active and inactive are the calls of the source. No stated cut-off is given here; in the data, active = GI50 up to about 1.1 µM and inactive = higher.

Field: example entries. Status: answers known.
c1ccc2c(Cc3[nH]c4ccccc4c3Cc3c[nH]c4ccccc34)c[nH]c2c1
2.07 µM (inactive)
O=C1CCC(=O)N2CCCCN12
> 100 µM (inactive)
COc1ccc(C(=O)/C=C/c2ccc(O)c(O)c2)c(OC)c1
15.1 µM (inactive)
Cc1cc(-c2nc3cc(O)ccc3s2)ccc1N
21 µM (inactive)
Cc1cccc(C)c1NC(=O)CCc1nnc2s/c(=C\c3ccc(Cl)cc3)c(=O)n12
92 µM (inactive)
COc1ccc(NC(=O)CC2S/C(=N\c3ccccc3C)NC2=O)c([N+](=O)[O-])c1 (stereo unspecified)
> 100 µM (inactive)
CCON1CC(C(=O)OC)=C(O)C1=O
> 100 µM (inactive)
Cn1c(N=P(c2ccccc2)(c2ccccc2)c2ccccc2)c([N+](=O)[O-])c(=O)n(C)c1=O
44.5 µM (inactive)
CCCC[C@@H]1CCN2C[C@@H](O)[C@@H](O)[C@H]2[C@@H]1O
> 100 µM (inactive)
CCO/C=N\c1c(C#N)c(-c2ccc(Cl)cc2)cn1-c1ccc(C)cc1
> 100 µM (inactive)

Shifting focus to the compound that follows.
Fill: GI50 (COLO 205) for this compound COc1cc(/C=C2/SC(c3ccccc3)N(c3ccccc3Cl)C2=O)cc(OC)c1OC (stereo unspecified)
23.3 µM (inactive)

* * *

test system: SN12C; experiment: NCI tumour cell line growth inhibition, 48 h
Active and inactive are the calls of the source. Cut-off read from the data, not from the text of the source: active = GI50 up to about 1.1 µM and inactive = higher.
parameter: GI50

Sample records with GI50:
CCCCN1C(=O)N(c2ccc(OCC)cc2)C2N(CCCC)C1C(C)(C)C2(C)C (stereo not drawn)
30.3 µM (inactive)
COc1cc(C=C2C(C)=NN(c3cccc(Cl)c3)C23SCC(=O)N3c2nc3ccccc3s2)ccc1O (stereo not drawn)
30.1 µM (inactive)
CC(C)[C@H]1NC(=O)[C@H]2N=C(O[C@@H]2C)[C@@H]2CCCN2C(=O)[C@H](Cc2ccccc2)NC(=O)[C@@H]2CSC(=N2)[C@@H](Cc2ccccc2)NC(=O)[C@@H]2CSC1=N2
> 100 µM (inactive)
CN(Cc1cccc2ccsc12)/N=C\c1ccc(Cl)cc1
> 100 µM (inactive)
O=C1C2CC(Cl)C(SSC3CC4C(=O)N(SC(Cl)(Cl)C(Cl)Cl)C(=O)C4CC3Cl)CC2C(=O)N1SC(Cl)(Cl)C(Cl)Cl (stereo not drawn)
1.91 µM (inactive)

Fill in reported GI50 for this entry: CCC1C(C(=O)Nc2ccccc2C)=C(C)NC(C)=C1c1ccccc1C (stereo not drawn)
> 100 µM (inactive)

Tell me measured GI50 for CC(=O)c1ccc(NC(=O)C(=O)Nn2c(S)nc3ccccc3c2=O)cc1 please.
> 100 µM (inactive)

# return recorded GI50 for entry C/C(=C\c1ccccc1)C(=O)NCc1ccc(C(=O)NCCc2c[nH]c3ccccc23)cc1
> 100 µM (inactive)
